Each entry below lists one item and its recorded EC50 value.
biological target: ΔF508-CFTR (Homo sapiens, UniProt P13569, DEL508-508); assay: Membrane potential optical (FRET/VIPR) assay, identification of potentiator compounds; conditions: Table 3; assay not given
Sequence (P13569 with tags, fused parts or gaps DEL508-508): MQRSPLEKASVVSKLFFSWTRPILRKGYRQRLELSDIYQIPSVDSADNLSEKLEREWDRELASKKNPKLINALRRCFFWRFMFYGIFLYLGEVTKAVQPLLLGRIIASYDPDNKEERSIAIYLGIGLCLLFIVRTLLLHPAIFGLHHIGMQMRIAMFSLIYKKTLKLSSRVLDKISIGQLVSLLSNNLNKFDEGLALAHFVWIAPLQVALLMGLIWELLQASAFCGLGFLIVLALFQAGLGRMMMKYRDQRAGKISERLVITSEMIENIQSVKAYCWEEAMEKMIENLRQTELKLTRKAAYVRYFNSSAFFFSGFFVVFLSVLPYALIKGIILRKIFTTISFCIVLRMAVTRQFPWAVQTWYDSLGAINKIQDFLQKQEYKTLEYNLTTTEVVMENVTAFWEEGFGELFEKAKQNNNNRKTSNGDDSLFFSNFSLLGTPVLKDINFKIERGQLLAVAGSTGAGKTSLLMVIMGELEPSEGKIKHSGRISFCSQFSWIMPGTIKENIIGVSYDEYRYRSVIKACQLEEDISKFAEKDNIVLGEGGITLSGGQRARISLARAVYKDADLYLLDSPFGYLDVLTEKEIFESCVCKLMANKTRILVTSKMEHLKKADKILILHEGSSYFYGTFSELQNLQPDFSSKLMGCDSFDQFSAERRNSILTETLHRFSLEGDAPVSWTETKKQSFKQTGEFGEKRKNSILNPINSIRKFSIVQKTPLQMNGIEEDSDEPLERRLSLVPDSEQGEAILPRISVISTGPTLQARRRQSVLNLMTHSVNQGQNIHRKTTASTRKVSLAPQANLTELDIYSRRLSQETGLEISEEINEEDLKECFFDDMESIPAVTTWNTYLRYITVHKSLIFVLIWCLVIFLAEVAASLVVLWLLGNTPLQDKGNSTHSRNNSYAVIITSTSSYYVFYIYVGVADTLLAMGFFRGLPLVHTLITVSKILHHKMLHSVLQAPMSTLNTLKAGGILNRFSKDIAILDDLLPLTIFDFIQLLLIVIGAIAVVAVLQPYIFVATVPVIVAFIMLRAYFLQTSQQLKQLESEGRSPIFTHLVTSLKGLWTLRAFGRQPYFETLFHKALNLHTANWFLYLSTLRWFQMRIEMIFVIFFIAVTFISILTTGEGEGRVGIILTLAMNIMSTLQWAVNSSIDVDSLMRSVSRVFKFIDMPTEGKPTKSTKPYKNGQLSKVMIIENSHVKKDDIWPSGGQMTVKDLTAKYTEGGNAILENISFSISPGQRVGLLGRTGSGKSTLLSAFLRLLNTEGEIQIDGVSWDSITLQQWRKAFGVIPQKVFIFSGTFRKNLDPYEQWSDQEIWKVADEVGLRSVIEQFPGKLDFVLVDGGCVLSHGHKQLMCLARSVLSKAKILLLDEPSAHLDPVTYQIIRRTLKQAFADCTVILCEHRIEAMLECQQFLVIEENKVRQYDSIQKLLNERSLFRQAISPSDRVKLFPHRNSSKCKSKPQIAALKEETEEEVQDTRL

INSERT INTO measurements (molecule, target_desc, experimental_result) VALUES
  ('O=C(Nc1cccc(OC(F)(F)F)c1)c1c[nH]c2ccccc2c1=O', 'ΔF508-CFTR (Homo sapiens, UniProt P13569, DEL508-508)', '< 10 µM'),
  ('COc1nc(NC(=O)c2c[nH]c3ccccc3c2=O)ccc1C(F)(F)F', 'ΔF508-CFTR (Homo sapiens, UniProt P13569, DEL508-508)', '< 10 µM'),
  ('O=C(Nc1ccc(N2CCC(CO)CC2)cc1C(F)(F)F)c1c[nH]c2ccccc2c1=O', 'ΔF508-CFTR (Homo sapiens, UniProt P13569, DEL508-508)', '< 10 µM'),
  ('O=C(Nc1ccc(N2CCCCC2)cc1C(F)(F)F)c1c[nH]c2ccccc2c1=O', 'ΔF508-CFTR (Homo sapiens, UniProt P13569, DEL508-508)', '< 10 µM'),
  ('CC(=O)c1cccc(NC(=O)c2c[nH]c3ccccc3c2=O)c1', 'ΔF508-CFTR (Homo sapiens, UniProt P13569, DEL508-508)', '25 to 60 µM');

Recorded EC50 for CC(C)(C)c1ccc(N)cc1NC(=O)c1c[nH]c2ccccc2c1=O , please?
< 10 µM

Recorded EC50 for Cc1ccc(C(F)(F)F)cc1NC(=O)c1c[nH]c2ccc(F)cc2c1=O , please?
< 10 µM

Recorded EC50 for Cc1cccc(NC(=O)c2c[nH]c3ccccc3c2=O)n1 , please?
25 to 60 µM

Recorded EC50 for O=C(Nc1ccccc1N1CCOCC1)c1c[nH]c2ccccc2c1=O , please?
< 10 µM

Recorded EC50 for CCOc1cccc(-c2ccccc2NC(=O)c2c[nH]c3ccccc3c2=O)c1 , please?
< 10 µM

Recorded EC50 for COc1cc(C#N)c(NC(=O)c2c[nH]c3ccccc3c2=O)cc1OC , please?
25 to 60 µM

Recorded EC50 for N#CCc1ccc(NC(=O)c2c[nH]c3ccccc3c2=O)cc1 , please?
25 to 60 µM

* * *

biological target: ΔF508-CFTR (Homo sapiens, UniProt P13569, DEL508-508); test: Membrane potential optical (FRET/VIPR) assay, identification of potentiator compounds; conditions: Table 3; assay not given
Each entry below lists one item and its recorded EC50 value.

INSERT INTO measurements (compound, target_desc, metric, experimental_result) VALUES
  ('CCC(C)c1c[nH]c2cc(NC(=O)c3c[nH]c4ccccc4c3=O)ccc12 (stereo not drawn) [Compound 259]', 'ΔF508-CFTR (Homo sapiens, UniProt P13569, DEL508-508)', 'EC50', '< 10 µM'),
  ('O=C(Nc1csc(C(F)(F)F)c1-c1ccccc1)c1c[nH]c2ccccc2c1=O [Compound 708]', 'ΔF508-CFTR (Homo sapiens, UniProt P13569, DEL508-508)', 'EC50', '< 10 µM'),
  ('CC(C)(C)c1cc(C(C)(C)C)c(NC(=O)c2c[nH]c3c(F)cccc3c2=O)cc1O [Compound 687]', 'ΔF508-CFTR (Homo sapiens, UniProt P13569, DEL508-508)', 'EC50', '< 10 µM');

Can you look up EC50 on ΔF508-CFTR (Homo sapiens, UniProt P13569, DEL508-508) for CCOc1cccc2c(=O)c(C(=O)Nc3cc(O)c(C(C)(C)C)cc3F)c[nH]c12 [Compound 526] ?
10 to 25 µM

Can you look up EC50 on ΔF508-CFTR (Homo sapiens, UniProt P13569, DEL508-508) for CCOc1ccc2ncc(C(=O)Nc3ccc4cc[nH]c4c3)c(O)c2c1 [Compound 112] ?
< 10 µM

Can you look up EC50 on ΔF508-CFTR (Homo sapiens, UniProt P13569, DEL508-508) for CC(C)(C)c1cc2cc[nH]c2cc1NC(=O)c1c[nH]c2c(C(F)(F)F)cccc2c1=O [Compound 559] ?
10 to 25 µM

Can you look up EC50 on ΔF508-CFTR (Homo sapiens, UniProt P13569, DEL508-508) for CCc1ccc(NC(=O)c2c[nH]c3ccccc3c2=O)cc1NC(=O)OC [Compound 129] ?
10 to 25 µM

Can you look up EC50 on ΔF508-CFTR (Homo sapiens, UniProt P13569, DEL508-508) for O=C(Nc1ccc2[nH]ccc2c1)c1c[nH]c2ccccc2c1=O [Compound 294] ?
10 to 25 µM

Can you look up EC50 on ΔF508-CFTR (Homo sapiens, UniProt P13569, DEL508-508) for CC1(C)CNc2cc(NC(=O)c3c[nH]c4ccccc4c3=O)ccc21 [Compound 386] ?
< 10 µM
